- target_or_system: T1, MPDZ_10, O75970
- T1 sequence (O75970 1624-1722, limits assumed, looked up): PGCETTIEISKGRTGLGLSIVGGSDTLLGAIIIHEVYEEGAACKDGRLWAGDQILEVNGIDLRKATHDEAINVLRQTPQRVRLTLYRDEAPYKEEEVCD
- experimental_details: holdup assay
- Design: key: below the threshold = too weak to quantify, mostly under pKd 3.1 to 4
- recorded_conditions: plain residues with an end cap or a label only (N-terminal biotin on a linker: ado-ado)
measurement_label: pKd

See these solved cases before continuing.
> print(dat)
                        binder        readout.value
1    RDYTQSSSSL [GRM5, P41594]  below the threshold
2   PEKVSNTTVV [IGSF5, Q9NSI5]  below the threshold
3  PAALPESTHM [SLC9A3, P48764]  below the threshold
4   LPPPESESKV [KCNJ9, Q92806]  below the threshold
5   QQGLLPHSSC [TYRO3, Q06418]                 3.72
6   TFSRRPKTRV [CD226, Q15762]                 4.03
7    DFKHTKSFII [JAM2, P57087]  below the threshold

Below: the item to evaluate.
Query string: Answer with the recorded pKd for the binder listed here: HLSTRQGTCV [ATRNL1, Q5VV63]
Result string: 3.75
